- tested.system: T1, polyhistidine-tagged human PD-1 (hPD1-His, 98AFK) (human, UniProt Q15116 25-167, limits assumed)
- T1 construct: also called human PD1-His; Human PD-1-His
- T1 sequence (Q15116 25-167 limits assumed): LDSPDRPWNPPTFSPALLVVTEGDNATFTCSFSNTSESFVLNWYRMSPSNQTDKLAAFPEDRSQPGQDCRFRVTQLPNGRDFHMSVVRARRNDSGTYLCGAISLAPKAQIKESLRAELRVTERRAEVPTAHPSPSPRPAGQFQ
- method: SPR (Biacore T200), mAb captured on anti-Fc chip; reference Mouse 08A
assay.endpoint: KD (REF)/KD
Numbers only.

These recorded examples may help you get a feel for the data.
binder	KD (REF)/KD
Mouse 08A N59A (antibody, mouse IgG1, kappa, V domains shown, Mouse IgG1 / kappa; also called 80AFH; Mouse x [PD-1_H] mAb (Clone 1.08 N59A) IgG1 / Kappa) VH: QVQLQQPGAELVKPGASVKLSCKASGYTFTSYYLYWMKQRPGQGLEWIGGVNPSNGGTAFSEKFKSKATLTVDKSSSTAYMQLSSLTSEDSAVYYCTRRDSNYDGGFDYWGQGTTLTVSS VL: DIVLTQSPTSLAVSLGQRATISCRASKSVSTSGFSYLHWYQQKPGQPPKLLIFLASNLESGVPARFSGSGSGTDFTLNIHPVEEEDAATYYCQHSWELPLTFGAGTKLELKR	0.4
Humanized 08A IgG4 Fab 098 G56A (antibody, V domains shown, IgG4 S228P / kappa; also called 90AVZ) VH: EVQLVQSGAEVKKPGASVKVSCKASGYTFTSYYLYWVRQAPGQGLEWIGGVNPSNAGTNFSEKFKSRVTLTVDTSISTAYMELSRLRSDDTAVYYCTRRLSHYDGGFDYWGQGTTVTVSS VL: DIVMTQTPLSLSVTPGQPASISCRASKSVSTSGFSYLHWYLQKPGQPPQLLIFLASNLESGVPDRFSGSGSGTDFTLKISRVEAEDVGVYYCQHSWELPLTFGQGTKLEIKR	3

Incoming: Entry under review: Humanized 08A IgG4 G56A (antibody, V domains shown, IgG4 S228P / kappa; also called 89AVZ; Humanized x [PD-1_H] mAb (08A/HuPD1A-11 G56A) IgG4 S228P / Kappa) VH: EVQLVQSGAEVKKPGASVKVSCKASGYTFTSYYLYWVRQAPGQGLEWIGGVNPSNAGTNFSEKFKSRVTLTVDTSISTAYMELSRLRSDDTAVYYCTRRDSNYDGGFDYWGQGTTVTVSS VL: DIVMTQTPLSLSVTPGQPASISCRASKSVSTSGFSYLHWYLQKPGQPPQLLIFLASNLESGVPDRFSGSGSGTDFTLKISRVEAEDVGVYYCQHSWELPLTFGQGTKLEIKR . Reported KD (REF)/KD?
Outgoing: 2.4

// provenance: patent US20220251194A1
